// data source = paper PMC6273138

# STUDY TARGET: UniProt:P11712
# PROTOCOL TEXT: CYP2C9-catalyzed diclofenac 4′-hydroxylase inhibition in pooled human liver microsomes
# TEST CONTEXT: human, pooled human liver microsomes, pH 7.4, probe diclofenac (10 µM), 4′-hydroxylation
ENDPOINT NAME: IC50 shift at 0.5 h

Recall and state the measured IC50 shift at 0.5 h for COc1cc([C@H]2OC[C@H]3[C@@H]2CO[C@@H]3c2ccc3c(c2)OCO3)cc(OC)c1OC [Aschantin] . > 2.5

---

# STUDY TARGET: CYP2C19 (Homo sapiens)
# Sequence (P33261 whole entry): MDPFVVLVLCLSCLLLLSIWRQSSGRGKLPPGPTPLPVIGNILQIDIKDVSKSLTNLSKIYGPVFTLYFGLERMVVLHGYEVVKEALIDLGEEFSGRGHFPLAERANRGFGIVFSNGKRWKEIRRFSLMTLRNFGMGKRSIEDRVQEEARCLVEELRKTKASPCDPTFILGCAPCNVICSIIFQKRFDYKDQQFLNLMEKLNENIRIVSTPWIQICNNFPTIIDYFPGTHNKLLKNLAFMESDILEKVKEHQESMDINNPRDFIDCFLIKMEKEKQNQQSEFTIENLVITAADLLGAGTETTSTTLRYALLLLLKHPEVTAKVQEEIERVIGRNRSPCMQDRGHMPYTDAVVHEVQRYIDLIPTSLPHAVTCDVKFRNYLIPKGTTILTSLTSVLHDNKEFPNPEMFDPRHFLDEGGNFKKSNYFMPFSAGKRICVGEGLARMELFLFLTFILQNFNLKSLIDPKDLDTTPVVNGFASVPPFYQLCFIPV
# PROTOCOL TEXT: CYP2C19-catalyzed [S]-mephenytoin 4′-hydroxylase inhibition in pooled human liver microsomes
# TEST CONTEXT: IC50 With Pre-incubation, CYP2C19 (S)-mephenytoin 4′-hydroxylase, 100 µM [S]-mephenytoin, 30 min pre-incubation with microsomes and NADPH
ENDPOINT NAME: IC50 (µM)
Answer in µM, number only, no unit symbol.

Recall and state the measured IC50 for COc1cc([C@H]2OC[C@H]3[C@@H]2CO[C@@H]3c2ccc3c(c2)OCO3)cc(OC)c1OC [Aschantin] . 6.1

---

Target chain: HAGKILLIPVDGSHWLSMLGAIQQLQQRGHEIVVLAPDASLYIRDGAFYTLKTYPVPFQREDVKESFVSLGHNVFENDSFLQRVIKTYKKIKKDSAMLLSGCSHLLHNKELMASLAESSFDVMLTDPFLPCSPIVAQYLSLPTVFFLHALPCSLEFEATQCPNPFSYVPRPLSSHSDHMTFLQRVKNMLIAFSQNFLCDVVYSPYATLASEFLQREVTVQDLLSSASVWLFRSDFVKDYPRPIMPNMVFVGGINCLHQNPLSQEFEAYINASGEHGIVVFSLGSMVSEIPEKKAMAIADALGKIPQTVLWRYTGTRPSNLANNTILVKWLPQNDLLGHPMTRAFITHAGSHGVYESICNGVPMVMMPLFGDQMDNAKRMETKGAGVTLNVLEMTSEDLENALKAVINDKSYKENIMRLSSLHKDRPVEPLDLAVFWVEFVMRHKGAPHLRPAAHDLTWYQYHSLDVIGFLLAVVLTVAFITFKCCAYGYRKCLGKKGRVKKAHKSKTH
ENDPOINT NAME: IC50 (µM)
Answer in µM, number only, no unit symbol.

Recall and state the measured IC50 for COc1cc([C@H]2OC[C@H]3[C@@H]2CO[C@@H]3c2ccc3c(c2)OCO3)cc(OC)c1OC [Aschantin] . 132

---

ENDPOINT NAME: Ki (µM)
Answer in µM, number only, no unit symbol.

Tell me Ki of COc1cc([C@H]2OC[C@H]3[C@@H]2CO[C@@H]3c2ccc3c(c2)OCO3)cc(OC)c1OC [Aschantin] when tested on CYP2C9 (Homo sapiens, UniProt P11712). 3.7

---

# STUDY TARGET: CYP2C19 (Homo sapiens)
ENDPOINT NAME: pKi
pKi field: float, defined as -log10 of concentration (mol/L).

Recall and state the measured pKi for COc1cc([C@H]2OC[C@H]3[C@@H]2CO[C@@H]3c2ccc3c(c2)OCO3)cc(OC)c1OC [Aschantin] . 5.24

---

# STUDY TARGET: CYP1A2 (Homo sapiens)
# Sequence (P05177 whole entry): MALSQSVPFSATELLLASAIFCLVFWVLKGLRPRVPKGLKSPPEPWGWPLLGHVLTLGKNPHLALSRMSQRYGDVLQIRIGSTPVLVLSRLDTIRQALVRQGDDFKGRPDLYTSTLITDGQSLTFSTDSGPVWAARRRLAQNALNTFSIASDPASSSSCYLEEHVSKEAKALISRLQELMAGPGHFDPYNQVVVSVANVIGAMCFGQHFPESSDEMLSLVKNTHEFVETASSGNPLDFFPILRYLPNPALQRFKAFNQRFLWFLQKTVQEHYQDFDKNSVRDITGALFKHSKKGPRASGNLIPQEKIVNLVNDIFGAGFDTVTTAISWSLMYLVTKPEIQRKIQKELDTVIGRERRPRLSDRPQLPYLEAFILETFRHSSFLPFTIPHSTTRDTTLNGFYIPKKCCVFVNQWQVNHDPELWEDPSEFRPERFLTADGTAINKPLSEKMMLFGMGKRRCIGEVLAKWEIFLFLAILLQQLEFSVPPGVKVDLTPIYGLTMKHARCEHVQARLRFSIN
# PROTOCOL TEXT: CYP1A2-catalyzed phenacetin O-de-ethylase inhibition in pooled human liver microsomes
ENDPOINT NAME: IC50

Tell me IC50 of COc1cc([C@H]2OC[C@H]3[C@@H]2CO[C@@H]3c2ccc3c(c2)OCO3)cc(OC)c1OC [Aschantin] when tested on CYP1A2 (Homo sapiens). > 100 µM
